Taken from ChEMBL document CHEMBL5512689.

- test_details: Kinetic solubility of compound at pH 6.5
- Type: physicochemical
- test_parameters: buffer, read-out: Kinetic_solubility
measured_endpoint: solubility kinetic (µM)
Provide only the numeric value, understood in µM.

stdin: Please report the measured solubility kinetic for Cc1cn(-c2ccc3n(c2=O)CCN([C@@H](C)[C@@H]2CC[C@H](c4cc(F)c(Cl)cc4C(F)(F)F)O2)C3=O)cn1
stdout: 44.8

---

- test_details: Lipophilicity, log D of the compound
- Format: physicochemical
- test_parameters: octanol/water
measured_endpoint: logD
// keep it numeric: no unit symbol after the value

stdin: Specify logD for Cc1cn(-c2ccc3n(c2=O)CCN([C@@H](C)[C@@H]2CC[C@H](c4cc(F)c(Cl)cc4C(F)(F)F)O2)C3=O)cn1 and stop.
stdout: 5
